- Assay Notes: chemical genetic growth profiling, strain panel (AID 1159580);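 note: tested at 20 µM; growth read once vehicle control cultures reached saturation at 30 °C; 1 = growth at the plate median or of vehicle wells; lower values mean less growth of the strain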
- Condition Label: S. cerevisiae deletion strains, growth OD, locus YNL233W, strain BNI4
The campaign covered roughly 5,500 compounds. About 2,000 (36%) were called active. Roughly 18% stayed inconclusive and do not appear here. Cut-off read from the data, not from the text of the source: active = normalized growth mostly below about 0.91 (no sharp cut-off); inconclusive = no clear call, values can overlap the other calls; inactive = mostly above about 0.92. The list shows a part of the results.
Classes to choose from: active, inactive

Worked set:
Compound | Group Label
CC(CCc1ccccc1)NCC(O)c1ccc(O)c(C(N)=O)c1 (stereo unspecified) | inactive
C[n+]1ccccc1/C=N/O | inactive
O=C(O)C1=CCCNC1 | inactive
CC12CCC(O)CC1CCC1C2[C@H](O)CC2(C)C(C3=CC(=O)OC3)CCC12O (stereo partly specified) | inactive
O=C(O)c1cc(O)c2c(c1)[C@@H]([C@H]1c3cc(C(=O)O)cc(O)c3C(=O)c3c(O[C@H]4O[C@H](CO)[C@@H](O)[C@H](O)[C@H]4O)cccc31)c1cccc(O[C@H]3O[C@H](CO)[C@@H](O)[C@H](O)[C@H]3O)c1C2=O | inactive
CC1=CC(=O)c2ccccc2C1=O | active
CC(=O)c1cc(CC=C(C)C)c(O)c(CC=C(C)C)c1 | inactive
CCCOc1ccc2nc(NC(=O)OC)[nH]c2c1 | inactive
CN(C)[C@@H]1C(=O)C(C(N)=O)=C(O)[C@@]2(O)C(=O)C3=C(O)c4c(O)ccc(Cl)c4[C@@H](O)[C@H]3C[C@@H]12 | inactive
CC(C)CCCC(C)C1CCC2C3CC(=O)[C@H]4C[C@@H](O)CC[C@]4(C)C3CC[C@]12C (stereo partly specified) | inactive

Dear all, I need the recorded test outcome for Oc1cccc(O)c1 , thank you.
inactive

Dear all, I need the recorded test outcome for C=C1c2cccc(O)c2C(O)=C2C(=O)[C@]3(O)C(O)=C(C(N)=O)C(=O)[C@@H](N(C)C)[C@@H]3[C@@H](O)[C@H]12 , thank you.
inactive

Dear all, I need the recorded test outcome for NNCc1cccc(O)c1 , thank you.
inactive

====

- Assay Notes: chemical genetic growth profiling, strain panel (AID 1159580)
- Condition Label: S. cerevisiae deletion strains, growth OD, locus YOR265W, strain rbl2, active compounds read low
In all, about 5,500 compounds went through this assay and about 2,000 (36%) were called active. Roughly 18% stayed inconclusive and do not appear here. The list shows a part of the results.
Record form. Attribute: normalized growth. Fill in for each entry.
Answers are plain numbers.

Solved cases (8 shown):
Compound | normalized growth
CC(=O)O[C@H]1CC[C@@]2(C)C(=CC(=O)C3C4CCC(C(C)CCCC(C)C)[C@@]4(C)CCC32)C1 (stereo partly drawn) | 1
CC(=O)Oc1cccc(O)c1 | 1
Cc1cc(=O)oc2cc(O)c(O)cc12 | 0.989
NCC(N)C(=O)c1ccccc1 (stereo not drawn) | 1.05
Cc1scc2c1N(C(=O)CN1CCN(C)CC1)c1ccccc1NC2=O | 0.965
NCC(=O)c1ccccc1 | 1.01
CC(=O)Oc1ccc(/C=C/c2cc(OC(C)=O)cc(OC(C)=O)c2)cc1 | 0.968
CC(=O)Oc1ccc(O)cc1 | 1.01

Please state normalized growth for every compound in the list that follows.
1. CC(N=C(NC#N)Nc1ccncc1)C(C)(C)C (stereo not drawn)
2. CO[C@H]1CC(O[C@@H]2/C(C)=C/C[C@@H]3C[C@@H](C[C@]4(CC[C@H](C)[C@@H](C5CCCCC5)O4)O3)OC(=O)[C@@H]3C=C(C)/C(=N\O)[C@H]4OC/C(=C\C=C\[C@@H]2C)[C@]43O)O[C@@H](C)C1O (stereo partly drawn)
3. NC(=O)NC(=O)Cc1ccccc1
4. CC(CCc1ccccc1)NCC(O)c1ccc(O)c(C(N)=O)c1 (stereo not drawn)
5. CC(C)(C)NCC(O)c1ccc(O)c(CO)c1 (stereo not drawn)

0.98
0.995
0.99
0.992
1.01

====

- Assay Notes: chemical genetic growth profiling, strain panel (AID 1159580);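 note: tested at 20 µM; growth read once vehicle control cultures reached saturation at 30 °C; 1 = growth at the plate median or of vehicle wells; lower values mean less growth of the strain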
- Condition Label: S. cerevisiae deletion strains, growth OD, locus YMR001C, strain CDC5
Out of some 5,500 compounds screened, about 2,000 (36%) were called active. Roughly 18% stayed inconclusive and do not appear here. Rule as the data show it: active = normalized growth mostly below about 0.91 (no sharp cut-off); inconclusive = no clear call, values can overlap the other calls; inactive = mostly above about 0.92. The list shows a part of the results.
Classes to choose from: active, inactive

Dear all, I need the recorded test outcome for Brc1ccc(-c2csc(-c3ccncc3)n2)cc1 , thank you.
inactive

====

- Assay Notes: chemical genetic growth profiling, strain panel (AID 1159580);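 note: tested at 20 µM; growth read once vehicle control cultures reached saturation at 30 °C; 1 = growth at the plate median or of vehicle wells; lower values mean less growth of the strain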
- Condition Label: S. cerevisiae deletion strains, growth OD, locus YNL250W, strain rad50, active compounds read low
Out of some 5,500 compounds screened, about 2,000 (36%) were called active. About 18% were inconclusive and are not listed. Some of the results follow.
Quantity Name: normalized growth
Answers are plain numbers.

Compound | normalized growth
CC(C)CC(NC(=O)OCC1c2ccccc2-c2ccccc21)C(=O)O (configuration not stated) | 0.996
CN(C)[C@@H]1C(=O)C(C(N)=O)=C(O)[C@@]2(O)C(=O)C3=C(O)c4c(O)cccc4[C@@](C)(O)[C@H]3[C@H](O)[C@@H]12 | 0.994
CC(=O)OCC(=O)[C@@]1(O)[C@H](C)CC2C3CCC4=CC(=O)C=C[C@]4(C)[C@@]3(F)[C@@H](O)C[C@@]21C (some centres not stated) | 0.975
CC(=O)O[C@H]1CC[C@@]2(C)C(=CC(=O)C3C4CCC(C(C)CCCC(C)C)[C@@]4(C)CCC32)C1 (some centres not stated) | 1
CCN1CCN(C(=O)NC(C(=O)N[C@@H]2C(=O)N3[C@@H]2SC(C)(C)[C@@H]3C(=O)O)c2ccccc2)C(=O)C1=O (some centres not stated) | 1.01
CC(=O)c1ccc(O)c(CC=C(C)C)c1 | 0.967
CC12CCC(O)CC1CCC1C2[C@H](O)CC2(C)C(C3=CC(=O)OC3)CCC12O (some centres not stated) | 0.986
Nc1ccc(C(=O)O)cc1 | 1.01
CN(C)CCCN1c2ccccc2Sc2ccc(Cl)cc21 | 1.02
CC(=O)O[C@H]1CCC2(C)C3=C(CCC2C1(C)C)[C@@]1(C)CC[C@@H](C(C)CCC=C(C)C)[C@]1(C)CC3 (some centres not stated) | 1.04

Please state normalized growth for every compound in the list that follows.
1. COc1cc(C(C)=O)cc(OC)c1O
2. C=C1c2cccc(O)c2C(O)=C2C(=O)[C@]3(O)C(O)=C(C(N)=O)C(=O)[C@@H](N(C)C)[C@@H]3[C@@H](O)[C@H]12

1: 0.988; 2: 0.987

Please state normalized growth for every compound in the list that follows.
1. O=C(O)C1=CCCNC1
2. C=C(C)C1CCC(C)(O)C2CC3OC3(C)C2C1 (configuration not stated)

[0.978, 1.02]

Please state normalized growth for every compound in the list that follows.
1. CN(C)c1ccc(O)c2c1C[C@H]1C[C@H]3[C@H](N(C)C)C(=O)C(C(N)=O)=C(O)[C@@]3(O)C(=O)C1=C2O
2. CN(C)CCCN1c2ccccc2CCc2ccc(Cl)cc21
3. C=C1c2c(Cl)ccc(O)c2C(O)=C2C(=O)[C@]3(O)C(O)=C(C(N)=O)C(=O)[C@@H](N(C)C)[C@@H]3[C@@H](O)[C@H]12
4. CN[C@@H]1[C@H](O)[C@H](NC)[C@H]2O[C@@]3(O)C(=O)C[C@@H](C)O[C@H]3O[C@@H]2[C@H]1O
5. COc1ccc([C@@H]2CC(=O)c3c(O)cc(O[C@@H]4O[C@H](CO[C@H]5O[C@@H](C)[C@H](O)[C@@H](O)[C@H]5O)[C@@H](O)[C@H](O)[C@H]4O)cc3O2)cc1O
6. CCOC(=O)[C@H](CCc1ccccc1)N[C@@H](C)C(=O)N1CCC[C@H]1C(=O)O
7. CN(C)[C@@H]1C(=O)C(C(N)=O)=C(O)[C@@]2(O)C(=O)C3=C(O)c4c(O)ccc(Cl)c4[C@@H](O)[C@H]3C[C@@H]12

0.975
0.996
0.96
1.02
0.978
1.01
0.99

Please state normalized growth for every compound in the list that follows.
1. CS(=O)(=O)c1ccc([C@@H](O)[C@@H](CO)NC(=O)C(Cl)Cl)cc1
2. CS(=O)(=O)Nc1ccc([N+](=O)[O-])cc1Oc1ccccc1
3. C/C1=C/CC(C)(C)/C=C/C/C(C)=C/CC1
4. COC(=O)/C(=C1\OC(=O)C(c2ccccc2)=C1O)c1ccccc1

0.981
0.999
0.973
0.998

====

- Assay Notes: chemical genetic growth profiling, strain panel (AID 1159580);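 note: tested at 20 µM; growth read once vehicle control cultures reached saturation at 30 °C; 1 = growth at the plate median or of vehicle wells; lower values mean less growth of the strain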
- Condition Label: S. cerevisiae deletion strains, growth OD, locus YDR363W, strain ESC2, active compounds read low
Among all 5,500 compounds or so, about 2,000 (36%) were called active. About 18% were inconclusive and are not listed. The list shows a part of the results.
Quantity Name: normalized growth
Numbers only.

Please state normalized growth for every compound in the list that follows.
1. CCC1(O)CC2CN(CCc3c([nH]c4ccccc34)[C@@](C(=O)OC)(c3cc4c(cc3OC)N(C)C3[C@]45CCN4CC=C[C@@](CC)([C@@H](OC(C)=O)[C@]3(O)C(=O)OC)[C@H]45)C2)C1 (stereo partly drawn)
2. Cc1cccc(C)c1OCC(N)C(C)C (stereo not drawn)

1: 0.993; 2: 0.999
